Just for reference, PubChem BioAssay (NCI) is where these values come from.

# System: DMS 273 small cell lung
# Assay procedure: NCI tumour cell line growth inhibition, 48 h
TGI overview

Example cases with answers are listed next.
I am curious: what TGI value has been reported for N#C/C(=C\c1ccc2[nH]ccc2c1)C(=O)NCCCCNC(=O)/C(C#N)=C/c1ccc2[nH]ccc2c1 ?
> 100 µM

I am curious: what TGI value has been reported for c1cnc2c(c1)-n1cccc1C1(CCCCC1)NN2 ?
> 100 µM

Next:
I am curious: what TGI value has been reported for C=CCC(O[Si](C)(C)C(C)(C)C)c1cc(O[Si](C)(C)C(C)(C)C)ccc1OC (stereo not drawn) ?
> 100 µM

----------
# Test system: SK-MEL-5 melanoma
# Assay procedure: NCI tumour cell line growth inhibition, 48 h
Metric name: TGI

I am curious: what TGI value has been reported for C=CCC(O[Si](C)(C)C(C)(C)C)c1cc(O[Si](C)(C)C(C)(C)C)ccc1OC (stereo unspecified) ?
> 100 µM

I am curious: what TGI value has been reported for CC(O)c1nc(C#N)c(N)o1 (stereo unspecified) ?
> 100 µM

I am curious: what TGI value has been reported for Cc1cccc(N2C(=O)/C(=C/C(Cl)=C/c3ccc([N+](=O)[O-])cc3)SC2=S)c1C ?
2.91 µM

Next:
I am curious: what TGI value has been reported for Cc1n[nH]c2ccccc2c1=O ?
> 100 µM

I am curious: what TGI value has been reported for O=[N+]([O-])c1ccc(-n2nc3ccc4nonc4c3n2)cc1 ?
> 100 µM

----------
TGI overview
# System: K-562 leukemia
# Assay procedure: NCI tumour cell line growth inhibition, 48 h

I am curious: what TGI value has been reported for NC(=O)CCC(N=c1c2ccccc2n(O)c2ccccc12)C(=O)O (stereo not drawn) ?
> 100 µM

I am curious: what TGI value has been reported for CCOC(=O)c1c(N)sc2c1C(C(=O)OCC)CCCC2 (stereo not drawn) ?
> 100 µM

I am curious: what TGI value has been reported for CCN1CC2(C)CCC(OC)C34C5CC6CCC(O)(C5C(=O)O6)C(C(O)C23)C14 (stereo not drawn) ?
> 100 µM

I am curious: what TGI value has been reported for N#Cc1c(-c2ccc([N+](=O)[O-])cc2)c(C#N)c(=O)n(NS(=O)(=O)c2ccccc2)c1S ?
77.4 µM

I am curious: what TGI value has been reported for Clc1ccc2c(c1)N(CCCN1CCCC13CCCCC3)c1ccccc1S2 ?
21.6 µM

Next:
I am curious: what TGI value has been reported for CSC(SC)=C(C(=O)c1ccc(Cl)cc1)n1c(=O)sc2cc(Br)ccc21 ?
> 100 µM

I am curious: what TGI value has been reported for O=c1c2cc(Br)cc(Br)c2[nH]c(=S)n1-c1ccc(N=Nc2ccc(O)c3cccnc23)cc1 ?
> 100 µM

I am curious: what TGI value has been reported for O=CCCCCCOCc1ccccc1 ?
> 31.7 µM

----------
TGI overview
# Test system: A498 renal
# Assay procedure: NCI tumour cell line growth inhibition, 48 h

Example cases with answers are listed next.
Identify the measured TGI of OCc1ccc(N(Cc2ccc(F)cc2)Cc2ccc(F)cc2)cc1Cl for A498 renal.
0.989 µM

Identify the measured TGI of C[C@H]1S[C@@H](c2ccc(Cl)cc2Cl)N(NC(=O)c2ccncc2)C1=O for A498 renal.
> 100 µM

Identify the measured TGI of C=C(Br)CN=CN(C)C for A498 renal.
> 100 µM

Identify the measured TGI of COC(=O)C1C=CCC2CCCCC21N1CCCC1 (configuration not stated) for A498 renal.
> 100 µM

Identify the measured TGI of CC(C)(C)C[C@H]1N[C@@H](C(=O)NC2CCC(O)CC2)[C@H](c2cccc(Cl)c2F)[C@@]12C(=O)Nc1cc(Cl)ccc12 (some centres not stated) for A498 renal.
10.3 µM

Next:
Identify the measured TGI of O=C1NC(=NCCc2ccc(Cl)cc2)S/C1=C\c1ccc2ncccc2c1 for A498 renal.
> 25 µM

Identify the measured TGI of CN(C)CCC(=O)Nc1ccc(-n2cc(-c3cccc(NC(=S)Nc4cccc(-c5cn(-c6ccc(NC(=O)CCN(C)C)cc6)nn5)c4)c3)nn2)cc1 for A498 renal.
> 100 µM

Identify the measured TGI of COP(=O)(OC)OCN(C)CC/C=C(\C)CC/C=C(\C)CCC=C(C)C for A498 renal.
> 100 µM
